Origin of values: patent US6930104B2

measurement_name: melting point

CCCCC1C(O)C(N2CCCc3ccccc32)c2ccccc2N1C(=O)c1ccc(OC)c(OC)c1 (stereo not drawn) [Example 76] :: 200 to 202 °C

Problem: If you can, please state the reported melting point value of COc1ccc(C(=O)N2c3ccccc3C(n3c4ccccc4c4ccccc43)CC2CCCNC(=O)c2ccccc2)cc1OC (stereo not drawn) [Example 124] .
Result: 236 to 237 °C

Problem: Note, next up: COc1ccc(C(=O)N2c3ccccc3C(N3CCCc4ccccc43)C(OC(C)=O)C2C)cc1OC (racemic) [Example 17]
Result: 130 to 131 °C

Problem: Same thing, different molecule: CCOc1ccc(C(=O)N2c3ccccc3C(n3c4ccccc4c4ccccc43)CC2C)cc1OCC (stereo not drawn) (hydrate or solvate) [Example 144]
Result: 240 to 241 °C

Problem: Then what about the molecule COc1ccc(C(=O)N2c3ccccc3C(N3CCSc4ccccc43)CC2C)cc1OC (stereo not drawn) [Example 72] ?
Result: 113 to 114 °C

Problem: Now the molecule COc1ccc(C(=O)N2c3ccccc3C(n3c4ccccc4c4ccccc43)=CC2C)cc1OC (stereo not drawn) [Example 161]
Result: 184 to 185 °C

Problem: Try CCCC1CC(n2c3ccccc3c3ccccc32)c2ccccc2N1C(=O)c1ccc(OCC)c(OC)c1 (stereo not drawn) [Example 146] next.
Result: 221 to 222 °C

Problem: CCCC(=O)NCCCC1CC(n2c3ccccc3c3ccccc32)c2ccccc2N1C(=O)c1ccc(OC)c(OC)c1 (stereo not drawn) [Example 122] , same question.
Result: 199 to 201 °C

Problem: Try this molecule next: CCCCC1CC(n2c3ccccc3c3ccccc32)c2ccccc2N1C(=O)c1ccc(OCC)c(OC)c1 (stereo not drawn) [Example 148]
Result: 231 to 232 °C

Problem: Continue with COc1ccc(C(=O)N2c3ccccc3C(n3c4ccccc4c4ccccc43)CC2COCc2ccccc2)cc1OC (stereo not drawn) [Example 43]
Result: 203 to 204 °C

Problem: // next record COc1ccc(C(=O)N2c3ccccc3C(N3CCc4ccccc43)CC2C)cc1OC (stereo not drawn) [Example 61]
Result: 147 to 148 °C
